In this section we review reported inhibition at 0.3 µM values for a set of molecules.
# studyTarget: Type I 5α-Reductase from Human Scalp (Homo sapiens)
# Construct: Scalp punch biopsies from graft recipient sites were obtained from human hair transplant procedures; from tissue; host or cells: human scalp punch biopsies (hair transplant graft recipient sites), homogenate, 100,000×g pellet
# assayDetails: Human Type I 5α-reductase assay (conversion of [3H]-testosterone to 5α-reduced metabolites)
# Assay type: biochemical
# reportedConditions: pH 7.5, 0.3 μM; 50 nM [3H]-testosterone, pH 7.5, 25°, 180 min; compared to control reaction mixtures; read-out: percent inhibition of Type I AR

{"chemicalSmiles": "CN1C(=O)CC[C@]2(C)c3ccc(Sc4nc(-c5ccccc5)cc5ccccc45)cc3CC[C@@H]12", "units": "%", "inhibition at 0.3 µM": 58}
{"chemicalSmiles": "CN1C(=O)CC[C@]2(C)c3ccc(-c4ccc(S(C)(=O)=O)cc4)cc3CC[C@@H]12", "units": "%", "inhibition at 0.3 µM": 34}
{"chemicalSmiles": "CN1C(=O)CC[C@]2(C)c3ccc(-c4cc5ccccc5s4)cc3CC[C@@H]12", "units": "%", "inhibition at 0.3 µM": 85}
{"chemicalSmiles": "CN1C(=O)CC[C@]2(C)c3ccc(-c4ccccc4)cc3CC[C@@H]12", "units": "%", "inhibition at 0.3 µM": 96}

* * *

# studyTarget: Type II 5α-Reductase from Human Prostate (Homo sapiens)
# Construct: The same procedure as above was used for preparations using tissue from prostate surgery; from tissue; host or cells: human prostate tissue from surgery, homogenate, 100,000×g pellet
# Sequence (P31213 1-254): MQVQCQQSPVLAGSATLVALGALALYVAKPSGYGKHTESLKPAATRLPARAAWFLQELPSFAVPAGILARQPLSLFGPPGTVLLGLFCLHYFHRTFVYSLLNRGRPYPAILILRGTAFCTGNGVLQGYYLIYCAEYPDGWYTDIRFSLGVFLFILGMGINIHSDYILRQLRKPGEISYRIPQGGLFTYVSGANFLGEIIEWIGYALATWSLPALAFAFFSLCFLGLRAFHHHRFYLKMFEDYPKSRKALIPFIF
# assayDetails: Human Type II 5α-reductase assay (conversion of [3H]-testosterone to 5α-reduced metabolites)
# Type: biochemical
# reportedConditions: pH 5.5, 0.3 μM; sodium acetate pH 5.5, 25°, 30 min; compared to control reaction mixtures; read-out: percent inhibition of Type II AR
In this section we review reported inhibition at 0.3 µM values for a set of molecules.
assayReadout: inhibition at 0.3 µM

{"chemicalSmiles": "CN1C(=O)CC[C@]2(C)c3ccc(Sc4nc5c(Cl)cccc5s4)cc3CC[C@@H]12", "result": "86%"}
{"chemicalSmiles": "CN1C(=O)CC[C@]2(C)c3ccc(-c4ccc5c(ccn5C(=O)OC(C)(C)C)c4)cc3CC[C@@H]12", "result": "1%"}
{"chemicalSmiles": "CN1C(=O)CC[C@]2(C)c3ccc(C(=O)Nc4ccccc4)cc3CC[C@@H]12", "result": "18%"}
{"chemicalSmiles": "CN1C(=O)CC[C@]2(C)c3ccc(-c4ccc(C(F)(F)F)cc4)cc3CC[C@@H]12", "result": "34%"}
{"chemicalSmiles": "C[C@]12CCC(=O)N[C@@H]1CCc1cc(Sc3cccc(F)c3)ccc12", "result": "28%"}
{"chemicalSmiles": "CN1C(=O)CC[C@]2(C)c3ccc(-c4ccc(Cl)c(Cl)c4)cc3CC[C@@H]12", "result": "46%"}
{"chemicalSmiles": "CN1C(=O)CC[C@]2(C)c3ccc(-c4ccc(C(F)(F)F)cn4)cc3CC[C@@H]12", "result": "14%"}
{"chemicalSmiles": "CSc1ccc(-c2ccc3c(c2)CC[C@H]2N(C)C(=O)CC[C@]32C)cc1", "result": "37%"}
{"chemicalSmiles": "C[C@]12CCC(=O)N[C@@H]1CCc1cc(C(=O)Nc3ccccc3)ccc12", "result": "19%"}
{"chemicalSmiles": "CN1C(=O)CC[C@]2(C)c3ccc(-c4ccccn4)cc3CC[C@@H]12", "result": "24%"}
{"chemicalSmiles": "CN1C(=O)CC[C@]2(C)c3ccc(-c4ccc(C#N)cc4)cc3CC[C@@H]12", "result": "41%"}
{"chemicalSmiles": "CN1C(=O)CC[C@]2(C)c3ccc(-c4ccc(Cl)cc4)cc3CC[C@@H]12", "result": "32%"}
{"chemicalSmiles": "CN1C(=O)CC[C@]2(C)c3ccc(-c4ccc5ncsc5c4)cc3CC[C@@H]12", "result": "24%"}
{"chemicalSmiles": "CN1C(=O)CC[C@]2(C)c3ccc(-c4cccc([N+](=O)[O-])c4)cc3CC[C@@H]12", "result": "51%"}
{"chemicalSmiles": "CN1C(=O)CC[C@]2(C)c3ccc(-c4c(F)c(F)c(F)c(F)c4F)cc3CC[C@@H]12", "result": "37%"}
{"chemicalSmiles": "Cc1ccccc1Sc1ccc2c(c1)CC[C@H]1N(C)C(=O)CC[C@]21C", "result": "43%"}
{"chemicalSmiles": "C[C@]12CCC(=O)N[C@@H]1CCc1cc(SCc3ccccc3)ccc12", "result": "31%"}

* * *

# studyTarget: Type II 5α-Reductase from Human Prostate (Homo sapiens)
# Construct: The same procedure as above was used for preparations using tissue from prostate surgery; from tissue; host or cells: human prostate tissue from surgery, homogenate, 100,000×g pellet
# assayDetails: Human Type II 5α-reductase assay (conversion of [3H]-testosterone to 5α-reduced metabolites)
# Assay type: biochemical
# reportedConditions: pH 5.5, 0.3 μM; sodium acetate pH 5.5, 25°, 30 min; compared to control reaction mixtures; read-out: percent inhibition of Type II AR

{"chemicalSmiles": "CN1C(=O)CC[C@]2(C)c3ccc(-c4ccc(Cl)cc4Cl)cc3CC[C@@H]12", "inhibition at 0.3 µM": "1%"}
{"chemicalSmiles": "CN1C(=O)CC[C@]2(C)c3ccc(-c4cc(C(F)(F)F)nc5c(C(F)(F)F)cccc45)cc3CC[C@@H]12", "inhibition at 0.3 µM": "34%"}
{"chemicalSmiles": "CN1C(=O)CC[C@]2(C)c3ccc(Sc4nc5ccccc5s4)cc3CC[C@@H]12", "inhibition at 0.3 µM": "90%"}
{"chemicalSmiles": "CCN(CC)C(=O)c1ccccc1-c1ccc2c(c1)CC[C@H]1N(C)C(=O)CC[C@]21C", "inhibition at 0.3 µM": "26%"}

* * *

# studyTarget: Type I 5α-Reductase from Human Scalp (Homo sapiens)
# Construct: Scalp punch biopsies from graft recipient sites were obtained from human hair transplant procedures; from tissue; host or cells: human scalp punch biopsies (hair transplant graft recipient sites), homogenate, 100,000×g pellet
# Sequence (P18405 1-259): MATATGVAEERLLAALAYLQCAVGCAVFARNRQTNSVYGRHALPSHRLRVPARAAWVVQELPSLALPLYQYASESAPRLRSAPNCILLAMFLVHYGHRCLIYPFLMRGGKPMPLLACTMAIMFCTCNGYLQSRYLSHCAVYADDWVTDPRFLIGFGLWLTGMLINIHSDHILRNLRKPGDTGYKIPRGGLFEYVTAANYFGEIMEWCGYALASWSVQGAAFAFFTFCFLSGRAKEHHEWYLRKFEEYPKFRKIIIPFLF
# assayDetails: Human Type I 5α-reductase assay (conversion of [3H]-testosterone to 5α-reduced metabolites)
# Format: biochemical
# reportedConditions: pH 7.5, 0.3 μM; 50 nM [3H]-testosterone, pH 7.5, 25°, 180 min; compared to control reaction mixtures; read-out: percent inhibition of Type I AR

{"compound": "CN1C(=O)CC[C@]2(C)c3ccc(-c4cccc(C(=O)NC5CCN(Cc6ccccc6)CC5)c4)cc3CC[C@@H]12 [Example 209]", "studyTarget": "Type I 5α-Reductase from Human Scalp (Homo sapiens)", "units": "%", "inhibition at 0.3 µM": 24}
{"compound": "C[C@]12CCC(=O)N[C@@H]1CCc1cc(Sc3cccc(F)c3)ccc12 [Example 16]", "studyTarget": "Type I 5α-Reductase from Human Scalp (Homo sapiens)", "units": "%", "inhibition at 0.3 µM": 14}
{"compound": "COc1ccc(Sc2ccc3c(c2)CC[C@H]2N(C)C(=O)CC[C@]32C)cc1 [Example 105]", "studyTarget": "Type I 5α-Reductase from Human Scalp (Homo sapiens)", "units": "%", "inhibition at 0.3 µM": 92}
{"compound": "CSc1ccc(-c2ccc3c(c2)CC[C@H]2N(C)C(=O)CC[C@]32C)cc1 [Example 120]", "studyTarget": "Type I 5α-Reductase from Human Scalp (Homo sapiens)", "units": "%", "inhibition at 0.3 µM": 93}
{"compound": "CN1C(=O)CC[C@]2(C)c3ccc(-c4ccc(F)cc4F)cc3CC[C@@H]12 [Example 231]", "studyTarget": "Type I 5α-Reductase from Human Scalp (Homo sapiens)", "units": "%", "inhibition at 0.3 µM": 80}
{"compound": "CN1C(=O)C=C[C@]2(C)c3ccc(-c4cccc([N+](=O)[O-])c4)cc3CC[C@@H]12 [Example 118]", "studyTarget": "Type I 5α-Reductase from Human Scalp (Homo sapiens)", "units": "%", "inhibition at 0.3 µM": 25}
{"compound": "CN1C(=O)CC[C@]2(C)c3ccc(-c4ccc(F)c5ccccc45)cc3CC[C@@H]12 [Example 64]", "studyTarget": "Type I 5α-Reductase from Human Scalp (Homo sapiens)", "units": "%", "inhibition at 0.3 µM": 81}
{"compound": "CN1C(=O)CC[C@]2(C)c3ccc(-c4cncc5ccccc45)cc3CC[C@@H]12 [Example 200]", "studyTarget": "Type I 5α-Reductase from Human Scalp (Homo sapiens)", "units": "%", "inhibition at 0.3 µM": 59}
